Molecular target: Voltage-dependent N-type calcium channel subunit alpha-1B (Homo sapiens) (UniProt Q00975)
Sequence (Q00975 whole entry, looked up): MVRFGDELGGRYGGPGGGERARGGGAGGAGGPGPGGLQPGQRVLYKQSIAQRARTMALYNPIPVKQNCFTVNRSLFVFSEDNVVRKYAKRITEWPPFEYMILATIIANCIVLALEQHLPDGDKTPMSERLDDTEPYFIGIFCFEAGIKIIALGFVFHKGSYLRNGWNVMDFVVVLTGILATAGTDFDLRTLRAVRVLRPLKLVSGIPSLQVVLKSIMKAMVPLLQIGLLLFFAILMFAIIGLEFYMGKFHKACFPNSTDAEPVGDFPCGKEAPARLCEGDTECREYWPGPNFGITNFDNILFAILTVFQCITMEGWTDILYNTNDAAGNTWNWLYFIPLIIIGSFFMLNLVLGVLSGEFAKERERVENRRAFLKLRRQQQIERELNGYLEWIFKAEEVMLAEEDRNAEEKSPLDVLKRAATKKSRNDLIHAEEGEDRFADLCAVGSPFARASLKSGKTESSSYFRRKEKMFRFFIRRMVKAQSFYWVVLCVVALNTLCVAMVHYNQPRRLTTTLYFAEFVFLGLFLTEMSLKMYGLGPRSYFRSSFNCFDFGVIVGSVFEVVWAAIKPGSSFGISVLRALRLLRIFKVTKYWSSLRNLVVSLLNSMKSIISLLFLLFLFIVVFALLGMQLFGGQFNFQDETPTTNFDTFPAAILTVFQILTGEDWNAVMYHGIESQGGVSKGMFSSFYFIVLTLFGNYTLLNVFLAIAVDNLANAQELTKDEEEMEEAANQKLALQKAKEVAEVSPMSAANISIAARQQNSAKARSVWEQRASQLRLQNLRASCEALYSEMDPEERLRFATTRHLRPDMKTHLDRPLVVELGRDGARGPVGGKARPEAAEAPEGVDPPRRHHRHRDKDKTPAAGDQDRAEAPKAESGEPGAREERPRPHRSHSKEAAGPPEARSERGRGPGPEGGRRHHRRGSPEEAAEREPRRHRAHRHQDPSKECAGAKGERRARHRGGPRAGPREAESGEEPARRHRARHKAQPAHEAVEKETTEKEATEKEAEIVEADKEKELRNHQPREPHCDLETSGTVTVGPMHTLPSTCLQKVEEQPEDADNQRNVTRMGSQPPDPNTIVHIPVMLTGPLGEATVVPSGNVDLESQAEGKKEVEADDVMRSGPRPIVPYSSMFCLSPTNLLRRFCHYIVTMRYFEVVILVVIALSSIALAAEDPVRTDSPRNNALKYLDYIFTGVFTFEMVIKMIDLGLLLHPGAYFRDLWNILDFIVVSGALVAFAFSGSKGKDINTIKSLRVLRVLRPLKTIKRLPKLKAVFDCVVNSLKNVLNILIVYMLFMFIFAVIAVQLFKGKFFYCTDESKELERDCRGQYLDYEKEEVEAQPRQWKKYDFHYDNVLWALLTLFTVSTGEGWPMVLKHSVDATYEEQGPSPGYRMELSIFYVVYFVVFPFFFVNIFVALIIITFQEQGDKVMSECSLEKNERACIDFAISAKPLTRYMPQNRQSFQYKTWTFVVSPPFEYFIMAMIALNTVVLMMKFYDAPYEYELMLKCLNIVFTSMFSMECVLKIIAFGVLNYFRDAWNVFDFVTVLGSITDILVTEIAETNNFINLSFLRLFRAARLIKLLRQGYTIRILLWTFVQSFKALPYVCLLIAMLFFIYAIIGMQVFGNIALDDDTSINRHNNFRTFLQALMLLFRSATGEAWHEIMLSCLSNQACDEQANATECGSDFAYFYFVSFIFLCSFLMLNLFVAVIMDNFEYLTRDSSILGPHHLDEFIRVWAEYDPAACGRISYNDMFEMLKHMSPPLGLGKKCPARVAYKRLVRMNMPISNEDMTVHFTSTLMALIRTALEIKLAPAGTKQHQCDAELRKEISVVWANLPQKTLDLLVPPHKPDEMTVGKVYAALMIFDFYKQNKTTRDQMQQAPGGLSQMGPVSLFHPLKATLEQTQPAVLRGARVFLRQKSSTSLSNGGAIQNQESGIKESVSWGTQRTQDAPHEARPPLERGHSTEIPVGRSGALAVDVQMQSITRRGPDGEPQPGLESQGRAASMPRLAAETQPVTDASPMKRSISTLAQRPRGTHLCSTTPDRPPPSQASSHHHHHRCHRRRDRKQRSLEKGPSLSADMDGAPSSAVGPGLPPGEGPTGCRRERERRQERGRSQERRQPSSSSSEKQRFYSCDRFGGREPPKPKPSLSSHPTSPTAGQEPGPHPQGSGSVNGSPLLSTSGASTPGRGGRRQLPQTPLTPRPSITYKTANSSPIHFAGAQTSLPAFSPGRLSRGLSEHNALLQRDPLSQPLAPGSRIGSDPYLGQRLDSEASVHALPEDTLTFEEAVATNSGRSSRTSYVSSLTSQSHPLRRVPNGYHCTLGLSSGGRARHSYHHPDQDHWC
Assay: disruptors of CaV2.2 binding to Mint1 – biochemical, HTRF (AID 2073)
Conditions: HTRF protein-protein interaction, Mint1-CaV2.2; at 20 µM; hits give high values
Out of some 290,000 compounds screened, about 570 (0.2%) were called active. Not shown: some 1% with an inconclusive outcome. For the sample, actives were picked, then their nearest neighbours and some compounds at random.
readout: inhibition

Worked examples, 6 molecules total:
>>> df
                                   molecule            result
0  O=C(Nc1ccccc1C(=O)O)c1ccc2c(c1)C(=O)N(c1cccc([N+](=O)[O-])c1)C2=O  11.2% (inactive)
1          COc1cccc2c(=O)c3cccc(N)c3[nH]c12    52.3% (active)
2  O=C(CC1(O)C(=O)N(C/C=C/c2ccccc2)c2ccccc21)c1ccccn1 (configuration not stated)     0% (inactive)
3  O=C(N/N=C/c1ccco1)c1cc(-c2ccc3ccccc3c2)n[nH]1   5.5% (inactive)
4  Cn1c(N)c(C(=O)COC(=O)c2cc(-c3ccccc3)nc3ccccc23)c(=O)n(Cc2ccccc2)c1=O  21.7% (inactive)
5      CCN=C1NN=C(c2cc(C)n(Cc3ccco3)c2C)CS1    57.5% (active)

Return inhibition measured with Voltage-dependent N-type calcium channel subunit alpha-1B (Homo sapiens) (UniProt Q00975) given this molecule: `CC(/C=N/NC(=O)c1cc(-c2ccc(Cl)cc2)nc2ccccc12)=C\c1ccco1` 37.8% (inactive)

Notebook: pull reported inhibition for Voltage-dependent N-type calcium channel subunit alpha-1B (Homo sapiens) (UniProt Q00975), entry CCn1cc(CN2CCCC(C(=O)c3ccc(-c4ccccc4)c(F)c3)C2)cn1 (configuration not stated) 6.5% (inactive)

Give inhibition (Voltage-dependent N-type calcium channel subunit alpha-1B (Homo sapiens) (UniProt Q00975)) of the following molecule: `Cc1ccc(-n2cccc2/C=C2/C(=N)N3C(=NC2=O)SN=C3S(C)(=O)=O)cc1Cl` 29.3% (inactive)

Please provide the recorded inhibition for `CCc1nc(NCCN2CCOCC2)c(C#N)c2c1CCCC2` , tested on Voltage-dependent N-type calcium channel subunit alpha-1B (Homo sapiens) (UniProt Q00975). 9.8% (inactive)

Give recorded inhibition with Voltage-dependent N-type calcium channel subunit alpha-1B (Homo sapiens) (UniProt Q00975) for the following molecule: `Cc1cc(C2=NNC(=NC3CC3)SC2)c(C)n1Cc1ccco1` 26.3% (inactive)

---

Target: Voltage-dependent N-type calcium channel subunit alpha-1B (Homo sapiens)
Assay: disruptors of CaV2.2 binding to Mint1 – biochemical, HTRF (AID 2073)
Details: HTRF protein-protein interaction, Mint1-CaV2.2; at 20 µM; hits give high values
Screen size: about 290,000 compounds; about 570 (0.2%) were called active. About 1% were inconclusive and are not listed. Only a selection was taken, and actives are over-represented in it overall.
readout: inhibition (%)
Write the value in % as a bare number.

Sample answers from the record:
                                   compound                       experimental_system  numeric_result
0  COc1ccc(CCNC(=O)C2CC(c3cc(C(F)(F)F)cc(C(F)(F)F)c3)=NO2)cc1 (stereo not drawn)  Voltage-dependent N-type calcium channel subunit alpha-1B (Homo sapiens)             0.2
1     COc1ccccc1-c1nnc(SCC(=O)NCc2cccs2)n1N  Voltage-dependent N-type calcium channel subunit alpha-1B (Homo sapiens)            -0.4
2       Cc1ncoc1C(=O)Nc1ncc([N+](=O)[O-])s1  Voltage-dependent N-type calcium channel subunit alpha-1B (Homo sapiens)              68
3        c1ccc2c(c1)nc(NCCN1CCOCC1)c1nncn12  Voltage-dependent N-type calcium channel subunit alpha-1B (Homo sapiens)             6.6
4  CCOC(=O)C1(Cc2ccccc2C)CCCN(C(=O)c2ccoc2)C1 (stereo not drawn)  Voltage-dependent N-type calcium channel subunit alpha-1B (Homo sapiens)            14.3
5  COc1ccc2[nH]c(=O)c(CN(Cc3nnnn3Cc3ccco3)C3CCCCC3)cc2c1  Voltage-dependent N-type calcium channel subunit alpha-1B (Homo sapiens)             1.1
6  C=CCn1c(=NC(=O)c2cc(Cl)sc2Cl)sc2cc(S(N)(=O)=O)ccc21  Voltage-dependent N-type calcium channel subunit alpha-1B (Homo sapiens)            27.4
7            CC1CCN(CC(=O)Nc2cccc(Cl)c2)CC1  Voltage-dependent N-type calcium channel subunit alpha-1B (Homo sapiens)            -2.2

Could you tell me which inhibition is on file for `NS(=O)(=O)c1ccc(NCc2c(F)cccc2Cl)cc1` ? -1.1

Could you tell me which inhibition is on file for COc1cc(C2c3c([nH]c(=O)[nH]c3=O)Nc3ccc4ccccc4c32)ccc1O (stereo not drawn) ? -1.1

I'd like to know its inhibition. The compound in question is `CCn1c(SCC(=O)Nc2cc(C)on2)nnc1-c1ccc(S(=O)(=O)N2CCCC2)cc1` 0.3

I would be grateful if you could share the reported inhibition for `Fc1cccc(Cl)c1CNc1ccc(N2CCCC2)cc1` . 54

May I ask what inhibition has been recorded for `CCOCCn1c(=NC(=O)c2cc(Cl)sc2Cl)sc2cc(S(N)(=O)=O)ccc21` ? 53.8

Please report the recorded inhibition for `Cc1nc(C)c(C(=O)Nc2ncc([N+](=O)[O-])s2)o1` . 33.7

Recorded inhibition of O=C(O)C1Nc2c(Cl)cc(Cl)cc2C2C=CCC12 (stereo not drawn) , please. 51.5
